Listed compounds paired with reported inhibition
- TGT: Protein kinase C gamma type (Homo sapiens) (UniProt P05129)
- MEASUREMENT CONTEXT: at 0.1 µM
ENDPOINT NAME: inhibition (%)

- C[C@@H](Oc1cc(-n2cnc3ccc(OCC4CCN(C)CC4)cc32)sc1C(N)=O)c1ccccc1C(F)(F)F: 3.29
- NS(=O)(=O)c1cccc(-c2cc3ccncc3cc2OCc2ccccc2)c1: 3.28
- CCn1c(-c2nonc2N)nc2ccc(F)cc21: 4.75
- N#Cc1c(NC(=O)c2ccccc2F)sc2c1CCCC2: 0.73
- CCn1c(-c2nonc2N)nc2c(C#CC(C)(C)O)nc(OCCNC)cc21: -2.02
- Oc1cccc(-c2nc(-c3ccccc3)[nH]c2-c2ccncc2)c1: 2.86
- CN(C)C(=O)O[C@H]1CN[C@H](C#Cc2cc3ncnc(Nc4ccc(OCc5cccc(F)c5)c(Cl)c4)c3s2)C1: 3.2
- N#Cc1cccc(Nc2nccc(-c3cnn4ncccc34)n2)c1: 6.2
- COc1ccc2ncnc(Nc3ccc(OCc4ccccc4)cc3)c2c1: 0.01
- CN(C)C(=O)O[C@@H]1CN[C@@H](C#Cc2cc3ncnc(Nc4ccc(OCc5cccc(F)c5)c(Cl)c4)c3s2)C1: -1.57
- Cc1ccc(C(=O)NC2CC2)cc1-c1ccc2[nH]ncc2c1: -0.11
- Cc1nc(-c2ccccc2)n2nc(NCCCN3CCOCC3)ncc12: 2.71
- Cc1ccc(NC(=O)CC2CC2)cc1-c1ccc(C(=O)NCC2CC2)cc1: 2.09
- CN(C)CCCn1c(-c2nonc2N)nc2cnccc21: 4.42
- COC(=O)c1ccc2c(c1)C(=Cc1cc(Br)c(O)c(Br)c1)C(=O)N2: 1.07
- COc1cc(Nc2nccc(-c3cnn4ncccc34)n2)cc(OC)c1: 0.71

====

- TGT: Inhibitor of nuclear factor kappa-B kinase subunit alpha (Homo sapiens)
- Sequence (whole entry): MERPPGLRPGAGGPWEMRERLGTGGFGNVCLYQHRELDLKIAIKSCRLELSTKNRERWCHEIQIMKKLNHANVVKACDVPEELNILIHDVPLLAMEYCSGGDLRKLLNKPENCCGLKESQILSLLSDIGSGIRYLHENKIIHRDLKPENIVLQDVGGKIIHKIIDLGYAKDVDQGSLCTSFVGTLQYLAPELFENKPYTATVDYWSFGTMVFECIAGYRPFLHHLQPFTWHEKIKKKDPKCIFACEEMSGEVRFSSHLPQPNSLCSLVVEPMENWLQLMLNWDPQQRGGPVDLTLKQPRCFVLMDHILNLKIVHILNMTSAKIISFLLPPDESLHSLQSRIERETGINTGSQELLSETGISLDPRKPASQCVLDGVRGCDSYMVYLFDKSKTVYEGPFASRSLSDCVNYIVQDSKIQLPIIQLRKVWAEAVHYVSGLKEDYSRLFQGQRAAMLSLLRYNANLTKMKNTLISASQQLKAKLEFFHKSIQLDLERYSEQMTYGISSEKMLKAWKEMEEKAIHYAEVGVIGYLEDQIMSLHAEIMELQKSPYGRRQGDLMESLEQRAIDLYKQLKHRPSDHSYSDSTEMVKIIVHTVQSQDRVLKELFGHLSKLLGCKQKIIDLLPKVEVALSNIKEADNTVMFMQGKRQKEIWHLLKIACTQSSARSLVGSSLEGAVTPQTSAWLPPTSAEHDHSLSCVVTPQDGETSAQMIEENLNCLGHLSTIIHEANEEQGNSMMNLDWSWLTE
- MEASUREMENT CONTEXT: at 0.1 µM
Recorded measurements of inhibition, one per entry
ENDPOINT NAME: inhibition (%)

* COc1cc2ncn(-c3cc(OCc4ccccc4S(C)(=O)=O)c(C#N)s3)c2cc1OC | 6.91
* ON=C1CCc2cc(-c3nc(C4CCNCC4)[nH]c3-c3ccncc3)ccc21 | -9.89
* COc1cc2ncnc(Nc3ccc4c(cnn4Cc4ccccc4)c3)c2cc1OC | 2.23
* c1ccc(Cc2nc3ccc(Nc4ncnc5ccccc45)cc3[nH]2)cc1 | -0.9
